Tested on: NCI-H460 lung
Assay: NCI-60 one-dose screen, 48 h (100 = growth as untreated, 0 = no growth, -100 = all killed)
Settings: 10 µM unless noted
The panel holds about 83,000 compounds, 20% with a hit somewhere; the sample as a whole holds those more often.
Criterion: growth meeting or surpassing 80%. Met: rule met. Not met: rule not met.

O=C1/C(=C/c2ccccc2Cl)CCc2ccccc21: rule met
Cc1cc(C)cc(S(=O)(=O)n2ccc(-c3ccc4c(c3)CCC(C)(C)O4)n2)c1: rule met
CC(=O)c1ccc(NS(=O)(=O)c2ccc([N+](=O)[O-])cc2)cc1: rule met
CC(=O)Nc1c(Cl)cc2c(c1Cl)Cc1ccccc1-2: rule met
CC(C)=CCCC(C)c1ccc(C)c2c1OCN(CC1CCNCC1)C2 (configuration not stated): rule not met
Cc1ccc(OCC(=O)Nc2ccc(Oc3ccccc3)cc2)c([N+](=O)[O-])n1: rule not met
COCCOCCOCCOCCOc1ccc2c(c1)C(=O)c1nc3ncccc3c(=O)n1-2: rule not met
